Origin of the recorded values: patent US20220389088A1

Please go through the items and note down their Kd.
Biological target: T1, recombinant human cANGPTL4 (C-terminus fibrinogen-like signaling peptide of angiopoietin-like 4) (human, UniProt Q9BY76 166-406)
T1 construct: also called C-terminus of ANGPTL4
T1 sequence: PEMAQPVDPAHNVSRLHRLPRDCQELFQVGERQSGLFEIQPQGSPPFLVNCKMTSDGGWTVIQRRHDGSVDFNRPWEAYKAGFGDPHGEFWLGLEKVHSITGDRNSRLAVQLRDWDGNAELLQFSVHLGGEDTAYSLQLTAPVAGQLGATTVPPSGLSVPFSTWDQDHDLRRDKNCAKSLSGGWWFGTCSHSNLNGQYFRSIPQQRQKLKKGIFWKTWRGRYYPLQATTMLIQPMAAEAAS
Assay: SPR (Reichert 2SPR), purified recombinant human cANGPTL4
Procedure: The kinetic binding parameters and affinity of the purified antibodies was determined by surface plasmon resonance (SPR) using Reichert 2SPR machine (Reichert Technologies) and purified recombinant human cANGPTL4 (Table 2).
For clarity, give the value followed by its unit.

QUERY: // lookup Kd for Ab-D, monoclonal rat-anti-human cANGPTL4 antibody (antibody, V domains shown, also called Antibody Ab-D) VH: EVQLVESGGGLVQPGRSLKLSCAASGFTFSNYGMAWVRQTPTKGLEWVASISTGGGNTYYRDSVKGRFTISRDNAKNTQYLQMDSLRSEDTATYYCARDSTVDYFDYWGQGVMVTVSS VL: DIQMTQSPSFLSASVGDRVTINCKASQKINKYLNWYQQKLGEAPKRLIYNTNNLQTGIPSRFSGSGSGTDFTLTISSLQPEDFATYCCLQHNSFPGTFGGGTKLELK
RESULT: 480 pM

QUERY: Value lookup for Kd; key = Ab-E, monoclonal rat-anti-human cANGPTL4 antibody (antibody, V domains shown) VH: EVQLVESGGGLVQPGRSMKLSCAASGFTFSSFAMAWVRQAPTKGLEWVASISYDGGNTYYRDSVKGRFTISRDNAKSSLYLQMDSLRSEDTSTYYCASADLIWWYFDFWGPGTMVTVSS VL: DIQMTQSPASLSASLEEIVTITCQASQDIGNWLAWYQQKPGKSPQLLIYGSTSLADGVPSRFSGSRSGTQYSLKISRLQVEDIGIYYCQQASSAPPTFGAGTKLELK
RESULT: 3740 pM

QUERY: Return reported Kd; argument: Ab-C, monoclonal rat-anti-human cANGPTL4 antibody (antibody, V domains shown) VH: EVQLVDSGGGLVQPGRSLKLSCAASGFTFSNYGMAWVRQIPTKGLEWVASISSGGGNTYYRDSVKGRFTISRDNAKNTQYLQMDSLRSEDTATYYCARDPGITGFDYWGQGVMVTVSS VL: DIQMTQSPSFLSASVGDRVTINCKASQNINKYLNWYQQKLGEAPKRLIYNTNTLQTGIPSRFSGSGSGTDYTLTISSLQPEDFATYFCLQHNSFPGTFGPGTTLELK
RESULT: 199 pM

QUERY: Look up Kd for this binder: Ab-B, monoclonal rat-anti-human cANGPTL4 antibody (antibody, V domains shown) VH: EVQLVESGGGLVQPGRSLKLSCAASGFTFSNYGMAWVRQTPTKGLEWVASISTGGSDTYYRDSVKGRFTISRDNAKNTQYLQMDSLRSEDTATYYCARQGFTEDTDYWGQGVMVTVSS VL: DIQMTQSPSFLSASVGDRVTINCKASQNINKYLNWYQQKLGEAPKRLIYNTNNLQTGIPSRFSGSGSGTDYTLTISSLQPEDFATYFCLQHNSFPGTFGGGTKLELK
RESULT: 132 pM
